Values compiled from PubChem BioAssay.

# target_system: Pro-neuregulin-1, membrane-bound isoform (Homo sapiens)
# experiment_notes: small molecules binding neuregulin-1 protein – biochemical, small-molecule microarray, fluorescence 635/667, psychiatric disease protein project, primary screen (AID 1075);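 note: score combines 667 nm spot fluorescence with signal to noise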
# condition_parameters: NRG1 binding, 635 nm fluorescence, higher = more signal
parameter: composite z-score
Just the number, please.

Using the record for CCCC=C(CCC)[C@@H](NC(=O)OCC(C)C)c1ccccc1 , report its composite z-score.
-0.111

For the compound shown here, COC(=O)c1c2oc(c1C(=O)OC)C(=O)N[C@@H](C(C)C)Cn1cc(nn1)C1(CCCCC1)NC(=O)N[C@H](CO)CC2 , give the reported composite z-score.
0.356

I have this compound here, COc1ccc([C@H]2C[C@H]3C(Br)=C[C@@]2(CO)C(=O)[C@]32CO2)cc1 , and I need its recorded composite z-score.
-0.202

Query (compound): COc1ccc(C(=O)Nc2ccc(CN3C(=O)[C@]4(O[C@H](CC(=O)N5CCC[C@H]5CO)[C@@H]([Si](C)(C)c5ccc(OC)cc5)[C@@H]4C)c4ccccc43)cc2)cc1 ; field requested: composite z-score
1.42

Reported composite z-score, compound NC(=O)[C@@H]1[C@H]2C(=O)O[C@H](c3ccccc3)[C@H](c3ccccc3)N2[C@H](c2ccc(O)cc2)[C@@]12C(=O)Nc1ccc(C#CC3=CCCCC3)cc12 : ____
1.68

Give the measured composite z-score of CC(C)[C@@H](C(=O)O)n1cc(C2(O)CCCCC2)nn1 .
0.394

composite z-score for COCCCNC(=O)[C@@]1(Sc2ccc(C)cc2)CC(=O)N(Cc2ccccc2Cl)[C@@H]1c1ccc(CO)cc1 ?
1.14

I am curious: what composite z-score value has been reported for CO[C@H]1O[C@H](CO)[C@@H](OC(=O)Nc2ccc(Oc3ccccc3)cc2)[C@H](OC(=O)Nc2ccc3c(c2)OCO3)[C@@H]1OC(=O)Nc1ccc2c(c1)OCO2 ?
0.516

====

# experiment_notes: budding yeast growth changes without added modifier – OD600, strain BY4716, 24 h, basal condition, primary screen (AID 1173)
# condition_parameters: S. cerevisiae BY4716 growth, OD600, 24 h, called active from +8 up or from −8 down
Active and inactive are the calls of the source.
Please state which outcome applies, choosing from active, inactive

State the result this test recorded for CCCCN1CC=CC23O[C@@H]4/C=C\CCCOC(=O)C4[C@H]2C(=O)N(CCCCCO)[C@@H]3C1=O (stereo not given in full) .
inactive

Tell me the assay call for COCC(=C=CC[C@@H](O)c1ccc(OCCO)cc1)C[C@@H](O)c1ccccn1 please.
inactive

Answer briefly: the call reported for CN(C)CCCCNC(=O)[C@@H]1C[C@@H]2C(=O)N[C@@H](CCCCN)C(=O)N2[C@@H]1c1ccc(O)cc1 in this assay.
inactive

# lookup: test call for CCCC1(C(=O)OC)C=C2C(=C(c3ccccc3)C(=O)C2C)CN1 (stereo not given)
inactive

# lookup: test call for COCCOC(=O)N1C(=O)[C@@]2(c3cc(C#CC4=CCCCC4)ccc31)[C@H](C(N)=O)[C@H]1C(=O)O[C@H](c3ccccc3)[C@H](c3ccccc3)N1[C@@H]2c1ccc(O)cc1
inactive

Kindly provide the recorded test outcome for the following compound: C[N+](C)(C)CCCC[C@@H]1NC(=O)[C@@H]2C[C@H](C(=O)NCCCCCCNC(=O)CS)[C@H](c3ccc(O)cc3)N2C1=O
inactive

Per the records of this test, what outcome belongs to [N-]=[N+]=Nc1ccccc1C[C@]1(C(=O)NCc2ccccc2)N=C(c2ccc(OCCCO)cc2)O[C@H]1c1ccccc1N=[N+]=[N-] ?
inactive

Per the assay record, what outcome was assigned to O=C1[C@@]23C=C(Br)[C@H](C[C@@H]2COC3)[C@]12CO2 ?
active

Given COCCOC(=O)N1C(=O)[C@@]2(c3cc(C#Cc4ccc(OC)cc4)ccc31)[C@H](c1ccc(O)cc1)N1[C@H](c3ccccc3)[C@H](c3ccccc3)OC(=O)[C@H]1[C@@H]2C(=O)Nc1nc2ccccc2s1 , state the outcome it received in this test.
inactive

Fill in: this test's call for COC(=O)[C@@]1(Cc2ccc(OC)cc2)[C@H]2c3cc(C(=O)N4CCCC4)n(CCCNc4ncc(C(F)(F)F)cc4Cl)c3C[C@H]2CN1C(=O)c1ccccc1 is ___
inactive

Assay outcome for O=C1C2C=CC(C(O)c3c(F)cccc3Cl)N(Nc3ccccc3F)C2C(=O)N1c1ccccc1 (stereo not given) : what was it?
inactive

Hi, sorry to bother you, what did the test record for C=C(CCCC)/C(=C/C[C@H](OC(=O)c1ccncc1)c1ccc(OCCO)cc1)c1cc(C(=O)OC)ccc1OC ?
inactive

Query: recorded result category for O=C1O[C@@H](c2ccccc2)[C@@H](c2ccccc2)N2[C@@H](c3ccc(OCCO)cc3)[C@]3(C(=O)Nc4ccc(C#CCCO)cc43)[C@@H](C(=O)NC[C@H](O)c3ccccc3)[C@H]12 in this test
inactive

Hi team, can someone confirm the assay call for C=CC[C@@]1(C(=O)N2CCCCC2)N=C(c2ccc(OCCCO)cc2)O[C@@H]1c1ccccc1N=[N+]=[N-] ?
inactive

Check the results log: what was the call for O=C1O[C@@H](c2ccccc2)[C@@H](c2ccccc2)N2[C@@H](c3ccc(OCCO)cc3)[C@]3(C(=O)Nc4ccc(C#CC5=CCCCC5)cc43)[C@@H](C(=O)N3CCCCCCC3)[C@H]12 ?
inactive

How did this test come out for CCCC(=O)N(CCc1c[nH]c2ccccc12)[C@@H]1CC(C(=O)NCCO)=C[C@H](Oc2c(I)cc(CO)cc2OC)[C@H]1O ?
inactive

Outcome logged for NC(=O)N1C(=O)C2C(C1=O)C1C=C(CCCO)C2C(C2CC2)N1Cc1cc2c(cc1Br)OCO2 (stereo not given) in this assay:
inactive

Field: outcome | Entry: COc1ccc(NC(=O)O[C@H]2[C@H](OC(=O)c3cc4ccccc4[nH]3)[C@@H](OC(=O)c3cc4ccccc4[nH]3)[C@@H](OC)O[C@@H]2CO)cc1
inactive

Status in this test for O=C1N(CCS(=O)(=O)c2ccccc2)c2ccccc2[C@@H]2OC(c3ccc(OCCCO)cc3)=N[C@]12Cc1ccccc1 ?
inactive

Write down the call the test reported for this compound. Item: Cc1ccc(S[C@]2(C(=O)NCC(C)C)CC(=O)N(Cc3cc(C(F)(F)F)cc(C(F)(F)F)c3)[C@@H]2c2ccc(CO)cc2)cc1
inactive

Please let me know the test result on file for CC1CC/C=C\[C@H]2OC34C=CCN(Cc5ccccc5)C(=O)[C@H]3N(C(C)CO)C(=O)[C@@H]4C2C(=O)O1 (stereo not given in full) .
inactive

Outcome logged for COC(=O)[C@@]1(CCC(=O)OC(C)(C)C)N=C(c2ccc(OCCCO)cc2)O[C@H]1c1ccccc1 in this assay:
inactive

// return assay outcome for O=C(CS)NCCCCCNC(=O)[C@@H]1C[C@@H]2C(=O)NCC(=O)N2[C@@H]1c1cccc(OCCO)c1
inactive

Which outcome did this test record for the compound CCCCC(=C=CC[C@H](O)c1cccc(OCCO)c1)C[C@H](O)c1ccccn1 ?
inactive

Identify the outcome logged in this assay for the compound shown: O=C1C[C@@](C(=O)NCc2ccccc2)(c2ccc([N+](=O)[O-])cc2)[C@@H](c2ccc(CO)cc2)N1CC12CC3CC(CC(C3)C1)C2
inactive

What call does the record list for C=C(CCCC)/C(=C/C[C@H](OC(C)=O)c1ccc(OCCO)cc1)c1cnc2ccccc2c1 ?
inactive

For C=CC[C@]12N=C(c3ccc(OCCCO)cc3)O[C@H]1c1ccccc1N(CCS(=O)(=O)c1ccccc1)C2=O , what call appears in the results of this test?
inactive

Tell me the assay call for Cc1c(NC(=O)/C(C#N)=C/c2cccc([N+](=O)[O-])c2)c(=O)n(-c2ccccc2)n1C please.
inactive

Write down the call the test reported for this compound. Item: NC(=O)[C@@]1(Cc2ccccc2)N=C(c2ccc(OCCCO)cc2)O[C@H]1c1ccccc1
inactive

What outcome does the record of this test show for CCCCCCCCCCC(O)C1C=CC2C(=O)NC(=O)C2N1Nc1ccc(Cl)cc1Cl (stereo not given) ?
inactive
